METRIC: IC50

# get_value(readout= IC50, system= PI3K α (Homo sapiens (Human))) for C[C@H](NC(=O)c1c(N)nn2cccnc12)c1cc2cccc(C#CC3CNC3)c2c(=O)n1-c1ccccc1
5 to 10 µM

Recall the recorded IC50 for C#Cc1cccc2nc([C@H](C)NC(=O)c3c(N)nn4cccnc34)n(-c3ccc(F)c(F)c3)c(=O)c12 with PI3K α (Homo sapiens (Human)) and state it.
Sequence (P42336 whole entry): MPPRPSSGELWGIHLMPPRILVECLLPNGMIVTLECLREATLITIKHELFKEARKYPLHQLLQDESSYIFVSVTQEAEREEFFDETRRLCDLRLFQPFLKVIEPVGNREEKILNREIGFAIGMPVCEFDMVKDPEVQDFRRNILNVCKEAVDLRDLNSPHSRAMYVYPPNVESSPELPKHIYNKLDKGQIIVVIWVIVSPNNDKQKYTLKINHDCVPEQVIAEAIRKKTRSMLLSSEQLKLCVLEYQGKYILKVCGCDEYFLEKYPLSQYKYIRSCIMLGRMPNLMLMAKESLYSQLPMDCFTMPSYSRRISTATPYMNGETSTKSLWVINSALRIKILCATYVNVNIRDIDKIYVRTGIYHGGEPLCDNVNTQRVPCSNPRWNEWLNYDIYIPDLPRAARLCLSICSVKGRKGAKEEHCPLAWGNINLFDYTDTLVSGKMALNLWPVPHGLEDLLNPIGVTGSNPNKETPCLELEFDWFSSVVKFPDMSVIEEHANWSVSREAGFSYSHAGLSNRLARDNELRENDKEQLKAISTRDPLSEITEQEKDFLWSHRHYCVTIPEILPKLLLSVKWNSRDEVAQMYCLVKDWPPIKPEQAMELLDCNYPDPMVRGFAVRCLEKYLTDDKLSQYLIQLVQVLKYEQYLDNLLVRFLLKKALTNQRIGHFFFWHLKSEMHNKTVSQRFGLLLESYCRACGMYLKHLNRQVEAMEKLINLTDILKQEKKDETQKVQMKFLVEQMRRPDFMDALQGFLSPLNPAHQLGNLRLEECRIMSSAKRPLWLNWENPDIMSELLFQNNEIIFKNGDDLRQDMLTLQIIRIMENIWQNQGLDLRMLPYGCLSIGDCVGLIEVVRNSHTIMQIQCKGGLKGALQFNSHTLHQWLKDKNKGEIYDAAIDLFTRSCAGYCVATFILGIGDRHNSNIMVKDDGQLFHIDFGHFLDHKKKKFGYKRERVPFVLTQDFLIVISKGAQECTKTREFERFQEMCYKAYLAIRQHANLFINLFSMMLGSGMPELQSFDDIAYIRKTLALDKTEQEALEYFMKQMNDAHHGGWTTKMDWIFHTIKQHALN
Sequence (P27986 whole entry partner): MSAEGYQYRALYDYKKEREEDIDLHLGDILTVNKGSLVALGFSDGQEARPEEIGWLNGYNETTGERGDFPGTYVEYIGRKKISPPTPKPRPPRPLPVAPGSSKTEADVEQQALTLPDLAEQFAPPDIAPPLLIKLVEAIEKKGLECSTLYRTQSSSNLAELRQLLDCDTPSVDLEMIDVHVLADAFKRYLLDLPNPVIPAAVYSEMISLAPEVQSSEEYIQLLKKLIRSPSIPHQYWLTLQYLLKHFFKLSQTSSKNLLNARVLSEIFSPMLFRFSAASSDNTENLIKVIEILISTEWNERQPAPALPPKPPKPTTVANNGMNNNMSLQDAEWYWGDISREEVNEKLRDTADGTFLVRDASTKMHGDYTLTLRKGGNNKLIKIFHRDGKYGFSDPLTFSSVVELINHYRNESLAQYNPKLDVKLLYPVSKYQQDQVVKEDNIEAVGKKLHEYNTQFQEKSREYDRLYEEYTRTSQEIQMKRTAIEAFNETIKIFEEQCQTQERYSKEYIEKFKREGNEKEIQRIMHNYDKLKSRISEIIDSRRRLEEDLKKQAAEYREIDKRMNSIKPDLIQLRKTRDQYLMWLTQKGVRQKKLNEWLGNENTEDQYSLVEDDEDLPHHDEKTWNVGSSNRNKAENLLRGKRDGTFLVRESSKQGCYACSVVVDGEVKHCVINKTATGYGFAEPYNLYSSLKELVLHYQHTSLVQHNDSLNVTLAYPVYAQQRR
5 to 10 µM

# value lookup — system PI3K α (Homo sapiens (Human)), readout IC50, item C#Cc1cccc2nc([C@H](C)NC(=O)c3nccnc3N)n(-c3ccccc3)c(=O)c12
1 to 5 µM

Query IC50 on PI3K α (Homo sapiens (Human)) for Cn1cc(C#Cc2cccc3cc(CNC(=O)c4c(N)nn5cccnc45)n(-c4ccccc4)c(=O)c23)cn1
5 to 10 µM
